# protocol text: Biodistribution: organ distribution of F-18 signal in mice
# Format: in vivo, male NMRI mice
# run conditions: heart, 60 min post i.v. injection
Here the recorded Organ distribution of F-18 signal, heart is given for each entry.

# molecule, Organ distribution of F-18 signal, heart [% ID/g]
measured = [
    ("O=C(NCC(=O)N1CCN(c2ccc(OCc3ccccc3)cc2)CC1)c1cccc(OCC[18F])c1 [Example 3g]", 2.07),
    ("O=C(NCC(=O)N1CCN(c2ccc(OCc3ccccc3)cn2)CC1)c1ccnc([18F])c1 [Example 14f]", 0.20),
    ("O=C(NCC(=O)N1CCN(c2ccc(OCc3ccccc3)cc2)CC1)c1ccc([18F])nc1 [Example 10e]", 0.69),
    ("O=C(NCC(=O)N1CCN(c2ccc(OCc3ccccc3)cc2)CC1)c1ccnc([18F])c1 [Example 11c]", 0.54),
    ("O=C(NCC(=O)N1CCN(c2ccc(OCc3ccccc3)cc2)CC1)c1cccnc1[18F] [Example 12c]", 0.69),
]

From: patent US20110250135A1
